test system: cut stems of chrysanthemums; test: Roots-inducing and fixation-stimulating actions in cut stems of chrysanthemums (leaf spray); assay type: in vivo; design: scale not given here; settings: sum of the indexes of 8 cuttings; 5 ppm spray; 50th day; non-treatment 7
Can you tell me Index for roots-induction, Total indexes for the items I'm about to list?
Quick one: just the number, no unit, thanks!

Query CCC(C)OC(=O)Cc1c[nH]c2cccc(Cl)c12 (racemic) yields Index for roots-induction, Total indexes of 10

Query "COC(=O)Cc1c[nH]c2cccc(Cl)c12" yields Index for roots-induction, Total indexes of 15

Query "CCCOC(=O)Cc1c[nH]c2cccc(Cl)c12" yields Index for roots-induction, Total indexes of 16

Query "CCCCOC(=O)Cc1c[nH]c2cccc(Cl)c12" yields Index for roots-induction, Total indexes of 10

Query "C=CCOC(=O)Cc1c[nH]c2cccc(Cl)c12" yields Index for roots-induction, Total indexes of 14

Query "O=C(O)Cc1c[nH]c2cccc(Cl)c12" yields Index for roots-induction, Total indexes of 13

Query "CC(C)COC(=O)Cc1c[nH]c2cccc(Cl)c12" yields Index for roots-induction, Total indexes of 8

Query "CCOC(=O)Cc1c[nH]c2cccc(Cl)c12" yields Index for roots-induction, Total indexes of 18

Query "CCCCCOC(=O)Cc1c[nH]c2cccc(Cl)c12" yields Index for roots-induction, Total indexes of 10

Query "CC(C)OC(=O)Cc1c[nH]c2cccc(Cl)c12" yields Index for roots-induction, Total indexes of 11
